Task for the reader: assign each of the following binders its reported kon.
# tgt: T1, Monomeric 8-histidine tagged human EGFRvIII extracellular domain (human, UniProt P00533 298-645)
# T1 construct: Analyte in all SPR assays; not shown: 8-histidine tag
# measurement_notes: SPR, captured by anti-human Fc, 25 C
Give bare numbers, in M⁻¹ s⁻¹.

Identify measured kon corresponding to h62G7-EQ/L6 (antibody, V domains shown, Humanized, human IgG1 recombinant antibody; also called h62G7-L6/EQ) VH: QVQLVQSGAEVKKPGASVKVSCKASGYTFTDYTLHWVRQAPGQGLEWMGGIWPITGGTTYNQKFKGRVTMTRDTSTSTVYMELSSLRSEDTAVYYCARGEAQGSWGQGTLVTVSS VL: DVVMTQSPLSLPVTLGQPASISCKSSQSLLYSNGKTYLNWFQQRPGQSPRRLIYQVSKLDSGVPDRFSGSGSGTDFTLKISRVEAEDVGVYYCGQDTHFPLTFGGGTKVEIK
240000

Hi, could you look up kon for each item in my list?
1. h62G7-H14/L1-DV (antibody, V domains shown, Humanized, human IgG1 recombinant antibody) VH: QVQLVQSGAEVKKPGASVKVSCKASGYTFTDYTLHWVRQAPGQGLEWMGGIWPITGGTTYNQKFKGRVTMTRDTSTSTVYMELSSLRSEDTAVYYCARGEAEGSWGQGTLVTVSS VL: DVVMTQSPLSLPVTLGQPASISCKSSQSLLYSNDKTYTNWFQQRPGQSPRRLIYEVSKLDVGVPDRFSGSGSGTDFTLKISRVEAEDVGVYYCGQDTHFPLTFGGGTKVEIK
2. h62G7-EQ/L1-DV (antibody, V domains shown, Human IgG1) VH: QVQLVQSGAEVKKPGASVKVSCKASGYTFTDYTLHWVRQAPGQGLEWMGGIWPITGGTTYNQKFKGRVTMTRDTSTSTVYMELSSLRSEDTAVYYCARGEAQGSWGQGTLVTVSS VL: DVVMTQSPLSLPVTLGQPASISCKSSQSLLYSNDKTYTNWFQQRPGQSPRRLIYEVSKLDVGVPDRFSGSGSGTDFTLKISRVEAEDVGVYYCGQDTHFPLTFGGGTKVEIK
3. h62G7-H14/L6 (antibody, V domains shown, Human IgG1) VH: QVQLVQSGAEVKKPGASVKVSCKASGYTFTDYTLHWVRQAPGQGLEWMGGIWPITGGTTYNQKFKGRVTMTRDTSTSTVYMELSSLRSEDTAVYYCARGEAEGSWGQGTLVTVSS VL: DVVMTQSPLSLPVTLGQPASISCKSSQSLLYSNGKTYLNWFQQRPGQSPRRLIYQVSKLDSGVPDRFSGSGSGTDFTLKISRVEAEDVGVYYCGQDTHFPLTFGGGTKVEIK

[18000, 200000, 13000]
